target: Neuropilin-1 (Rattus norvegicus) (UniProt Q9QWJ9); test: Inhibition of biotin-labelled VEGF165 binding to rat recombinant NRP-1/Fc chimeric protein at 10 uM incubated for overnight by competitive ELISA method relative to control
Positions of bridges follow the written chain, without caps; N, C: chain ends. Non-standard residues stand in square brackets, D forms with d. Residues, ends and D or L forms follow the SMILES beside them. Orn = NCCC[C@H](N)C(=O)O
endpoint: inhibition (%)

N=C(N)NCCC[C@H](NC(=O)CC[C@@H]1NC(=O)[C@H]2CCCN2C(=O)[C@@H](N)CCCCNC(=O)CC[C@@H](C(=O)N[C@@H](CCCNC(=N)N)C(=O)O)NC(=O)[C@H]2CCCN2C(=O)[C@H](CCCCN)NC1=O)C(=O)O	86.8

(I) N=C(N)NCCC[C@H](NC(=O)[C@@H]1CCC(=O)NCCCC[C@@H](N)C(=O)N2CCC[C@H]2C(=O)N1)C(=O)O (H-[dK]PER-OH; lactam 1-3)
(II) N=C(N)NCCC[C@H](NC(=O)[C@@H]1CCC(=O)NCCC[C@H](N)C(=O)N2CCC[C@H]2C(=O)N1)C(=O)O (H-[Orn]PER-OH; lactam 1-3)
(III) N=C(N)NCCC[C@H](NC(=O)[C@@H]1CC(=O)NCCCC[C@H](N)C(=O)N2CCC[C@H]2C(=O)N1)C(=O)O (H-KPDR-OH; lactam 1-3)
(IV) N=C(N)NCCC[C@H](NC(=O)[C@@H]1CCCCNC(=O)CC[C@H](N)C(=O)N2CCC[C@H]2C(=O)N1)C(=O)O (H-EPKR-OH; lactam 1-3)
Query: Arrange the 4 entries by inhibition so the values rise. // ordering of labels required in reply
Response: I, III, II, IV
(I: 4%, III: 14.7%, II: 46.6%, IV: 89%)
